The measured values listed here are drawn from ChEMBL document CHEMBL6078653.

target: Histamine H1 receptor (Homo sapiens); experiment: Displacement of [3H]-Pyrilamine from human recombinant H1 receptor expressed in CHO-K1 cells incubated for 3 hrs by radioligand binding assay
Sequence (P35367 whole entry): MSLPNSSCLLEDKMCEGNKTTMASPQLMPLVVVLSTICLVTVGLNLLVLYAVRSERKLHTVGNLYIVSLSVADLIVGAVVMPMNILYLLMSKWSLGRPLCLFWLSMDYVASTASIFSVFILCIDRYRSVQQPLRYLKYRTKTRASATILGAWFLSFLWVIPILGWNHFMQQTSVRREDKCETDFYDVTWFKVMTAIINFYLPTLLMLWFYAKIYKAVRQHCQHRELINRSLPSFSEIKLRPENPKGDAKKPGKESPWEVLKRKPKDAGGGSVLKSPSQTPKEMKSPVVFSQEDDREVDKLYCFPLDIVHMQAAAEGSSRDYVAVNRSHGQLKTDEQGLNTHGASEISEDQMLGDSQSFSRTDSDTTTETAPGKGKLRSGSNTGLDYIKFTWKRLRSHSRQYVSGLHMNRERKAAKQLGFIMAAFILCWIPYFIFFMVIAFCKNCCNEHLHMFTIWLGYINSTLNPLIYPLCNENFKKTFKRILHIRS
METRIC: IC50 (µM)
Report only the number, with the unit µM understood.

query: Fill in: IC50 of CCCCCc1cc2c(c(O)c1C(=O)O)C=CC(C)(CCC=C(C)C)O2 (stereo unspecified) is ___
result: 5.7

* * *

# IC50 per entry
molecular target: 5-hydroxytryptamine receptor 2A (Homo sapiens, UniProt P28223); assay: Displacement of [3H]ketanserin from human recombinant 5-HT2A receptor expressed in CHO-K1 cells incubated for 60 mins by radioligand binding assay
Sequence (P28223 whole entry): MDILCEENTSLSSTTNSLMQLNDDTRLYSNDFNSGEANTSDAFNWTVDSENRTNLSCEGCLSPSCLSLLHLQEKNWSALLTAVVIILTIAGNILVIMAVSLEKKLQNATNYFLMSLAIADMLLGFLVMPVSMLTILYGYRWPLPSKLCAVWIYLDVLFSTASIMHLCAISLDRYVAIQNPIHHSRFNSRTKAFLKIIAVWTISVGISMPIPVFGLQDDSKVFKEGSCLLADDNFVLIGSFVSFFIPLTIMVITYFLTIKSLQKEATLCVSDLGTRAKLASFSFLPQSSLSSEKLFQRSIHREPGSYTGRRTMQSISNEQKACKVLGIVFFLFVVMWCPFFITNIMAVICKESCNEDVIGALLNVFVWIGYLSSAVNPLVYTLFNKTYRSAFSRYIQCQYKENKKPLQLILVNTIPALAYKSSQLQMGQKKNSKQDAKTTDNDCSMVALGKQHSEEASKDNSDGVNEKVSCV
The answer is to be given in µM; state only the numeric part.

query: Request: IC50, test system 5-hydroxytryptamine receptor 2A (Homo sapiens, UniProt P28223), entry CCCCCc1cc(O)c(C/C=C(\C)CCC=C(C)C)c(O)c1
result: 1.88

query: Item: CCCCCc1cc(O)c2c(c1)OC(C)(C)c1ccc(C)cc1-2 Test system: 5-hydroxytryptamine receptor 2A (Homo sapiens, UniProt P28223) Read-out: IC50 Value: ?
result: 4.89

* * *

assay: Aggregation property of compound in PBS buffer at pH 7.4 assessed as critical aggregation concentration by DLS assay; type: physicochemical
Reported CAC is given for each of the following compounds.
Quote the value and follow it with the unit of measurement.

// worked examples, CAC included
| COMPOUND | CAC |
| --- | --- |
| CCCCCc1cc(O)c2c(c1)OC(C)(C)c1ccc(C)cc1-2 | 23.1 µM |
| C=C(C)[C@@H]1CCC(C)=C[C@H]1c1c(O)cc(CCC)cc1O | 31.6 µM |

query: Quick one: CAC of CCCCCc1cc(O)c2c(c1)OC(C)(CCC=C(C)C)C=C2 (centres undefined) ?
result: 0.2 µM

query: CAC for CCCCCc1cc(O)c(C/C=C(\C)CCC=C(C)C)c(O)c1 ?
result: 100 µM

* * *

molecular target: Sodium-dependent noradrenaline transporter (Homo sapiens, UniProt P23975); assay: Displacement of [125]RTI-55 from human recombinant NET receptor expressed in MDCK cells incubated for 3 hrs by radioligand binding assay
Sequence (P23975 whole entry): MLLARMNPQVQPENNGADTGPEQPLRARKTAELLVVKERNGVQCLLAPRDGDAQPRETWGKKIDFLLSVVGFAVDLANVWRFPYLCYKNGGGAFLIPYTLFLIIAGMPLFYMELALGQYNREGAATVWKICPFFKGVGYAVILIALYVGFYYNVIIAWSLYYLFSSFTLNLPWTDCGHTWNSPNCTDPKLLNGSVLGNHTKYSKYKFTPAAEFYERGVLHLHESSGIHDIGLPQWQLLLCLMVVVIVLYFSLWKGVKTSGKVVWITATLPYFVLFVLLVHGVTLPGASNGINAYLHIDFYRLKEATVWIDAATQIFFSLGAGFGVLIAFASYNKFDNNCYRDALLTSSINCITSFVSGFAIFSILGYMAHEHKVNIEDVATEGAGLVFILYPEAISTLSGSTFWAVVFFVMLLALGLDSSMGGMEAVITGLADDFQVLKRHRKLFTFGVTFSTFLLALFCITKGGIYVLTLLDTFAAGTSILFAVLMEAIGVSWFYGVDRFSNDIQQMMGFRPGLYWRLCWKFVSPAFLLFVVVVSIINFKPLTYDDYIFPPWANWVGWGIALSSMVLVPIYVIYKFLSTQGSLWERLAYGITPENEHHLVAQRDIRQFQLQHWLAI
METRIC: pIC50
Please express pIC50 as -log10 of the molar concentration.

Illustrative cases are given below, each with its answer.
| COMPOUND | pIC50 |
| --- | --- |
| CCCCCc1cc(O)c(C/C=C(\C)CCC=C(C)C)c(O)c1 [CANNABIGEROL] | 5.61 |
| C=C(C)[C@@H]1CCC(C)=C[C@H]1c1c(O)cc(CCC)cc1O [CANNABIDIVARIN] | 5.58 |
| CCCCCc1cc2c(c(O)c1C(=O)O)C=CC(C)(CCC=C(C)C)O2 (stereo not given) | 5.49 |
| CCCCCc1cc(O)c2c(c1)OC(C)(CCC=C(C)C)C=C2 (stereo not given) [CANNABICHROMENE] | 5.71 |

Turning now to a further compound:
query: Any idea what pIC50 was measured for CCCCCc1cc(O)c2c(c1)OC(C)(C)c1ccc(C)cc1-2 [CANNABINOL] ?
result: 5.94

* * *

assay: Aggregation property of compound in DMEM assessed as critical aggregation concentration by DLS assay; format: physicochemical
Below is a list of entries, each paired with its recorded CAC value.
# include the unit after the value

Observe how each entry below is paired with its result.
| MOLECULE | CAC |
| --- | --- |
| CCCCCc1cc(O)c2c(c1)OC(C)(C)c1ccc(C)cc1-2 | 4.8 µM |
| C=C(C)[C@@H]1CCC(C)=C[C@H]1c1c(O)cc(CCC)cc1O | 100 µM |
| CCCCCc1cc(O)c2c(c1)OC(C)(CCC=C(C)C)C=C2 (stereo not given) | 1.6 µM |

query: Given the molecule CCCCCc1cc2c(c(O)c1C(=O)O)C=CC(C)(CCC=C(C)C)O2 (stereo not given) , what is its reported CAC?
result: 100 µM

query: Find the recorded CAC belonging to CCCCCc1cc(O)c(C/C=C(\C)CCC=C(C)C)c(O)c1 and report it.
result: 16.7 µM

* * *

molecular target: Voltage-gated inwardly rectifying potassium channel KCNH2 (Homo sapiens); experiment: Displacement of [3H]-Dofetilide from recombinant hERG expressed in HEK293 cells incubated for 60 mins by radioligand binding assay
Sequence (Q12809 whole entry): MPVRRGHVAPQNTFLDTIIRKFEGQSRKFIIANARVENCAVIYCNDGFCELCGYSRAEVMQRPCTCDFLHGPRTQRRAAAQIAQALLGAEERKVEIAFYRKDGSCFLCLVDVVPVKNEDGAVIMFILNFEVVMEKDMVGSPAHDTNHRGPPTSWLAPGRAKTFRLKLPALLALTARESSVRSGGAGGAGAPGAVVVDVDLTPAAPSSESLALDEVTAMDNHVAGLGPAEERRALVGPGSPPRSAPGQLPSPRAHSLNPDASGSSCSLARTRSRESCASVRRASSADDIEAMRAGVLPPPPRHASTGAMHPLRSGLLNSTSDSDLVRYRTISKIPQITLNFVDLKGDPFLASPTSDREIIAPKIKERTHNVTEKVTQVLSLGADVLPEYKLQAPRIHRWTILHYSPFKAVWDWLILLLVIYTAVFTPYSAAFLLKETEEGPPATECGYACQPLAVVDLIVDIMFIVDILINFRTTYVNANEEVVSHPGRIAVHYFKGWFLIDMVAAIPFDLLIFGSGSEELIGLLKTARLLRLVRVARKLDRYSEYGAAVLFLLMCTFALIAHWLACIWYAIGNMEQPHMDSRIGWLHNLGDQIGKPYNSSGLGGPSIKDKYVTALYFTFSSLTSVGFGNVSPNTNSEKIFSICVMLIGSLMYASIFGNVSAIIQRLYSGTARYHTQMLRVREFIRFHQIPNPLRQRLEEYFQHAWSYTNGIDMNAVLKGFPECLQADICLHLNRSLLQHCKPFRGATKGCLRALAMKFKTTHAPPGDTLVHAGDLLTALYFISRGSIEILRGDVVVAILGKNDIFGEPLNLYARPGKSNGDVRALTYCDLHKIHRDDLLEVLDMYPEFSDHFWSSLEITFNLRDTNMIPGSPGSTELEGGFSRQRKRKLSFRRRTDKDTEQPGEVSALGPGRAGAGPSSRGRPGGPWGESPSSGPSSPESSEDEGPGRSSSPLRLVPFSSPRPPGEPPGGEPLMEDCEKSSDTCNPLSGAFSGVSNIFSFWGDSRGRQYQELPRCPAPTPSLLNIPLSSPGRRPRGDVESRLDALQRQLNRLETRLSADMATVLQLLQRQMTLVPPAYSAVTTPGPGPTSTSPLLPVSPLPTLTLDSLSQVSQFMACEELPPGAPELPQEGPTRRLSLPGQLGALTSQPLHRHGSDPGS
METRIC: IC50 (µM)
# output: bare number, implied unit µM

query: Query: IC50; subject: CCCCCc1cc(O)c(C/C=C(\C)CCC=C(C)C)c(O)c1
result: 3.06

* * *

assay: Aggregation property of compound in Tris HCL buffer at pH 7.4 assessed as critical aggregation concentration by DLS assay; assay type: physicochemical
Parameter: CAC. Scope: all listed entries.
Kindly answer with a numeric value in µM, unit omitted.

In the examples that follow, each entry is paired with its recorded CAC.
| COMPOUND | READING_UNIT | VAL |
| --- | --- | --- |
| C=C(C)[C@@H]1CCC(C)=C[C@H]1c1c(O)cc(CCC)cc1O [CANNABIDIVARIN] | µM | 100 |
| CCCCCc1cc(O)c2c(c1)OC(C)(C)c1ccc(C)cc1-2 [CANNABINOL] | µM | 10.4 |

query: Please give the measured CAC for this compound: CCCCCc1cc(O)c2c(c1)OC(C)(CCC=C(C)C)C=C2 (centres undefined) [CANNABICHROMENE]
result: 0.8

query: Endpoint output: CAC of CCCCCc1cc(O)c(C/C=C(\C)CCC=C(C)C)c(O)c1 [CANNABIGEROL] . Value?
result: 20.3

* * *

test: Inhibition of human MDH incubated for 5 mins in presence of NADH by absorbance based analysis
pIC50: −log10 of the molar value.
Decision: pIC50 compared against 5; not below it gives y, below it gives n.

Study these solved cases before continuing.
| COMPOUND | ASSIGNED_CATEGORY |
| --- | --- |
| CCCCCc1cc(O)c(C/C=C(\C)CCC=C(C)C)c(O)c1C(=O)O | n |
| C=C(C)[C@@H]1CCC(C)=C[C@H]1c1c(O)cc(CCCCC)c(C(=O)O)c1O | n |
| CCCCCc1cc(O)c2c(c1)OC(C)(CCC=C(C)C)C=C2 (configuration not stated) | y |
| CCCCCc1cc(O)c2c(c1)OC(C)(C)c1ccc(C)cc1-2 | y |

query: Check if pIC50 >= 5 (inclusive). Item: CCCCCc1cc2c(c(O)c1C(=O)O)C=CC(C)(CCC=C(C)C)O2 (configuration not stated)
result: n

* * *

biological target: UniProtKB Q01959; assay: Displacement of [125]RTI-55 from human recombinant DAT receptor expressed in CHO-S cells incubated for 3 hrs by radioligand binding assay
Sequence (Q01959 whole entry): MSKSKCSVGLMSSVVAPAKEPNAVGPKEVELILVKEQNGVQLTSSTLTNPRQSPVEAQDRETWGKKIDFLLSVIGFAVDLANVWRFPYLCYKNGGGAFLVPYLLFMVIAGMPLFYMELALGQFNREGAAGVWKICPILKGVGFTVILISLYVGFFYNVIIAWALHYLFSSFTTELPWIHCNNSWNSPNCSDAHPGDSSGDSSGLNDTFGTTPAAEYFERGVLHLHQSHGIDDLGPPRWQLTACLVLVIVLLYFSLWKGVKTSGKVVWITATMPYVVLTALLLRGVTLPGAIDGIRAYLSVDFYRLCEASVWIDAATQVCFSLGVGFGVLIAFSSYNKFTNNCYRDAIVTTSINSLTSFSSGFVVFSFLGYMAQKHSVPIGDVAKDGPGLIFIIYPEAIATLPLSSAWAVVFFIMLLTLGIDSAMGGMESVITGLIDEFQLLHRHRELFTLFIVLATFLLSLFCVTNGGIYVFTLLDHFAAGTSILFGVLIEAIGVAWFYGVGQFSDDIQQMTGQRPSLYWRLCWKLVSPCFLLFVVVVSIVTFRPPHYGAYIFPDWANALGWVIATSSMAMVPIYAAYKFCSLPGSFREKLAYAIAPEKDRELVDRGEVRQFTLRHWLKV
This listing pairs compounds with measured IC50.
Value expressed in µM; do not type the unit.

Some entries whose results are on file:
| COMPOUND | MEASUREMENT_TARGET | VAL |
| --- | --- | --- |
| CCCCCc1cc(O)c(C/C=C(\C)CCC=C(C)C)c(O)c1 | UniProtKB Q01959 | 0.95 |
| C=C(C)[C@@H]1CCC(C)=C[C@H]1c1c(O)cc(CCC)cc1O | UniProtKB Q01959 | 3 |
| CCCCCc1cc(O)c2c(c1)OC(C)(CCC=C(C)C)C=C2 (centres undefined) | UniProtKB Q01959 | 0.74 |

Consider the record given below.
query: Given CCCCCc1cc(O)c(C/C=C(\C)CCC=C(C)C)c(O)c1C(=O)O , state its recorded IC50.
result: 3.88
